assay: AUC(0 to infinity) in Sprague-Dawley rat plasma at 10 mg/kg, iv measured up to 48 hrs by LC-MS/MS analysis; type: ADME, organism-based; design: dose 10 mg/kg, time < 48 hrs, route iv
attribute_measured: AUC(0-inf) (ng·h/mL)
The answer is to be given in ng·h/mL; state only the numeric part.

What the record says about "O=C(Cc1cccc(Oc2ccccc2)c1)Nc1nnc(N[C@@H]2CCN(c3cccnn3)C2)s1" : AUC(0-inf) is 4630

---

assay: MRT(0 to infinity) in Sprague-Dawley rat plasma at 100 mg/kg, po measured up to 48 hrs by LC-MS/MS analysis; format: ADME, organism-based
attribute_measured: MRT inf
Quick note: number first, unit second.

The compound "O=C(Cc1cccc(Oc2ccccc2)c1)Nc1nnc(N[C@@H]2CCN(c3cccnn3)C2)s1" showed MRT inf equal to 3.83 h

These measurements were taken from ChEMBL document CHEMBL5370626.
